Here we gather IC50 data for CD73 (Homo sapiens (Human)) reported by several publications.

Some compounds with known IC50 results, for comparison:
# compound, data-value
measured = [
    ("CCCCCCCCCCCCNC(=O)Nc1nc(Cl)nc2c1ncn2[C@@H]1O[C@H](COP(=O)(O)CP(=O)(O)O)C(O)C1O (stereo partly drawn)", "10 to 100 nM"),
    ("O=C(NC1CC2CCC1C2)O[C@@H]1CCN(c2cn[nH]c(=O)c2Cl)C1 (stereo partly drawn)", "1 to 10000 nM"),
    ("O=C(Nc1ccccc1)N[C@@H]1CCN(c2cn[nH]c(=O)c2Cl)C1", "1 to 10000 nM"),
    ("O=P(O)(O)COC[C@H]1O[C@@H](n2ncc3c(NC4CCC4)nc(Cl)nc32)[C@H](O)[C@@H]1O", "≤ 500 nM"),
    ("CC(C)CNc1nc(Cl)nc2c1cnn2[C@@H]1O[C@H](COCP(=O)(O)O)[C@@H](O)[C@H]1O", "≤ 500 nM"),
]

*Q* Any idea what IC50 was measured for COC[C@@](C)(OC[C@H]1O[C@@H](c2ccc3c(NC4CCCC4)nc(Cl)nn23)[C@H](O)[C@@H]1O)P(=O)(O)O ?
*A* 1 to 100 nM

*Q* Again, but for O=P(O)(O)CS(=O)(=O)C[C@H]1O[C@@H](n2ncc3c(NCc4ccc(Cl)cc4)nc(Cl)nc32)[C@H](O)[C@@H]1O
*A* ≤ 500 nM

*Q* Item: CN(Cc1ccccc1Cl)c1nc(Cl)nc2c1nnn2[C@@H]1O[C@H](COCP(=O)(O)O)[C@@H](O)[C@H]1O
*A* ≤ 500 nM

*Q* Note, next up: CCOC(=O)NCC(=O)N1CCC(NC(=O)O[C@@H]2CCN(c3cn[nH]c(=O)c3Cl)C2)CC1
*A* 1 to 10000 nM

*Q* Next up: O=P(O)(O)[C@@](CO)(COCc1nn[nH]n1)OC[C@H]1O[C@@H](n2ncc3c(NCC4CC4)nc(Cl)nc32)[C@H](O)[C@@H]1O
*A* ≤ 10 nM

*Q* Now the same for CC(C)(C)OC(=O)N1CCC(NC(=O)N[C@@H]2CCN(c3cn[nH]c(=O)c3Cl)C2)CC1
*A* 1 to 10000 nM

*Q* Then CN(C[C@H]1O[C@@H](n2cnc3c(NC4CCCC4)nc(Cl)nc32)[C@H](O)[C@@H]1O)C(=O)CP(=O)(O)O ?
*A* < 100 nM

*Q* Cool, now O=C(Cn1ncc(N2CC[C@@H](OC(=O)NC3CCC(F)(F)CC3)C2)c(Cl)c1=O)NO
*A* 1 to 10000 nM

*Q* Try this compound next: O=C(Nc1ccccc1)O[C@@H]1CCN(c2cn[nH]c(=O)c2Cl)C1
*A* 1 to 10000 nM

*Q* Next record, please: O=C(N[C@H]1CCOC1)O[C@@H]1CCN(c2cn[nH]c(=O)c2Cl)C1
*A* 1 to 10000 nM

* * *

pIC50: −log10 of the molar value.
Field: pIC50. System: CD73 (Homo sapiens (Human), UniProt P21589). Provenance: assorted publications.

# compound, pIC50
measured = [
    ("CC(C)(C)c1nnc(NC(=O)O[C@@H]2CCN(c3cn[nH]c(=O)c3Cl)C2)s1", "4.00 to 5.00"),
]

*Q* Look up pIC50: COCCOCC(COCc1nnn[nH]1)(OC[C@H]1O[C@@H](n2ncc3c(NC4CCCC4)nc(Cl)nc32)[C@H](O)[C@@H]1O)P(=O)(O)O (single isomer, unassigned)
*A* ≥ 8.00

*Q* Same question, O=C(Nc1cccc(OC(F)F)c1)N[C@@H]1CCN(c2cn[nH]c(=O)c2Cl)C1 this time
*A* 5.00 to 9.00

*Q* Now consider CC(C)COc1nc(NCc2cccc(Cl)c2)c2cnn([C@@H]3O[C@H](COCP(=O)(O)O)[C@@H](O)[C@H]3O)c2n1 and answer again.
*A* < 6.00

*Q* # iterate: CC(CO)(P(=O)(O)O)S(=O)(=O)C[C@H]1O[C@@H](n2ncc3c(NC4CCCC4)nc(Cl)nc32)[C@H](O)[C@@H]1O (stereo partly shown)
*A* ≥ 7.00

*Q* Also check O=P(O)(O)[C@@](CO)(COCc1nn[nH]n1)OC[C@H]1O[C@@H](c2ccc3c(NCC4CCCC4)nc(Cl)nn23)[C@H](O)[C@@H]1O
*A* ≥ 9.30

*Q* Can you handle CC1(CNc2nc(Cl)nc3c2cnn3[C@@H]2O[C@H](COCP(=O)(O)O)[C@@H](O)[C@H]2O)CC1 next?
*A* ≥ 6.30

* * *

// cross-study collection: pIC50 for UniProt P21589
pIC50: −log10 of the molar value.

Some entries whose results are on file:
# molecule, pIC50
measured = [
    ("O=P(O)(O)CP(=O)(O)OC[C@H]1O[C@@H](n2ncc3c(N[C@@H]4CCc5cc(F)ccc54)cc(Cl)nc32)[C@H](O)[C@@H]1O", 9.47),
    ("O=P(O)(O)C(CO)(Cc1ccccn1)OC[C@H]1O[C@@H](n2ncc3c(NC4CCCC4)nc(Cl)nc32)[C@H](O)[C@@H]1O (stereo partly drawn)", "≥ 7.00"),
]

// moving on: another record for pIC50
*Q* Sample CN(C[C@H]1O[C@@H](n2cnc3c(NC4CCCC4)nc(Cl)nc32)[C@H](O)[C@@H]1O)C(=O)CP1(=O)Nc2ccccc2CO1 (stereo partly drawn) — what was its pIC50?
*A* < 6.00

* * *

pIC50: −log10 of the molar value.
Collected set of pIC50 measured with CD73 (Homo sapiens (Human), UniProt P21589) across studies.

# compound, test-target, readout, data-value
measured = [
    ("CC(C)(C)C1CCC(NC(=O)O[C@@H]2CCN(c3cn[nH]c(=O)c3Cl)C2)CC1 (some centres unmarked)", "CD73 (Homo sapiens (Human), UniProt P21589)", "pIC50", "5.00 to 9.00"),
    ("O=C(NC1CCN(C(=O)Nc2ccc(C(F)(F)F)cc2)CC1)O[C@@H]1CCN(c2cn[nH]c(=O)c2Cl)C1", "CD73 (Homo sapiens (Human), UniProt P21589)", "pIC50", "5.00 to 9.00"),
]

*Q* Sample Cc1c(N2CC[C@@H](NC(=O)NC3CCCC3)C2)cn[nH]c1=O — what was its pIC50?
*A* 5.00 to 9.00

*Q* Now the same for C=Cc1c(N2CC[C@@H](OC(=O)NC3CCCC3)C2)cn[nH]c1=O
*A* 5.00 to 9.00

*Q* Please do the same for COC(=O)OCOP(=O)(CC(=O)N(C)C[C@H]1O[C@@H](n2cnc3c(NC4CCCC4)nc(Cl)nc32)[C@H](O)[C@@H]1O)OCOC(=O)OC as well.
*A* < 6.00

*Q* Now consider O=C(N[C@H]1CC[C@@H](C(=O)O)CC1)O[C@@H]1CCN(c2cn[nH]c(=O)c2Cl)C1 and answer again.
*A* 5.00 to 9.00

*Q* Try this compound next: CC(C)OC(=O)OCOP(=O)(CC(=O)N(CC1CC1)C[C@H]1O[C@@H](n2cnc3c(NC4CCCC4)nc(Cl)nc32)[C@H](O)[C@@H]1O)OCOC(=O)OC(C)C
*A* < 6.00

*Q* Here is the next compound: CCCCC/C=C\C/C=C\CCCCCCCC(=O)Nc1nc(Cl)nc2c1ncn2[C@@H]1O[C@H](COP(=O)(O)CP(=O)(O)O)C(O)C1O (some centres unmarked)
*A* 7.00 to 8.00

*Q* Next entry: NC(=O)c1cc(S(=O)(=O)Nc2ccc(CCCNc3cc(N)n4nc(-c5ccco5)nc4n3)c(F)c2)cc(Cl)c1O
*A* > 7.00

*Q* Next compound: O=P(O)(O)CS(=O)(=O)C[C@H]1O[C@@H](n2nnc3c(NC4Cc5ccccc5C4)nc(Cl)nc32)[C@H](O)[C@@H]1O
*A* ≥ 6.30

*Q* Moving on to CN(c1cc(Cl)nc2c1cnn2[C@@H]1O[C@H](COP(=O)(O)CP(=O)(O)O)[C@@H](O)[C@H]1O)[C@@H]1CCc2ccccc21
*A* 9.01

*Q* Can you check COC[C@](COCc1nn[nH]n1)(OC[C@H]1O[C@@H](n2ncc3c(NC4CCCC4)nc(Cl)nc32)[C@H](O)[C@@H]1O)P(=O)(O)O next?
*A* ≥ 8.00

*Q* Field entry: CC(C)(C)C(=O)N1CCC(NC(=O)O[C@@H]2CCN(c3cn[nH]c(=O)c3Cl)C2)CC1
*A* 5.00 to 9.00

*Q* Okay, and C[C@@](CO)(OC[C@H]1O[C@@H](n2ncc3c(N[C@@H]4CC[C@H]5CCC[C@H]54)nc(Cl)nc32)[C@H](O)[C@@H]1O)P(=O)(O)O (racemic) ?
*A* ≥ 7.00
